# System: Staphylococcus aureus
# test: Antibacterial activity against methicillin-resistant Staphylococcus aureus 530231 clinical isolate after 20 to 24 hrs by two-fold microdilution method
# Format: functional
endpoint.label: MIC

Answered examples (5):
[
  {
    "cpd.smiles": "CN1CCN(CCCCCCOC(=O)c2c3c(n4cc(Br)ccc24)C(=O)c2ncccc2C3=O)CC1",
    "MIC": "0.5 µg/mL"
  },
  {
    "cpd.smiles": "O=C1c2cccnc2C(=O)c2c1c(C(=O)OCCCCN1CCOCC1)c1ccc(Br)cn21",
    "MIC": "0.5 µg/mL"
  },
  {
    "cpd.smiles": "CN(C)CCCCCOC(=O)c1c2c(n3cc(Br)ccc13)C(=O)c1ncccc1C2=O",
    "MIC": "0.25 µg/mL"
  },
  {
    "cpd.smiles": "O=C1c2cccnc2C(=O)c2c1c(C(=O)OCCCCCCN1CCCCC1)c1ccc(Br)cn21",
    "MIC": "0.125 µg/mL"
  },
  {
    "cpd.smiles": "O=C1c2cccnc2C(=O)c2c1c(C(=O)OCCCCCCN1CCOCC1)c1ccc(Br)cn21",
    "MIC": "≤ 0.0078 µg/mL"
  }
]

Now look at this entry.
Enquiry: Field request: MIC | item: `O=C1c2cccnc2C(=O)c2c1c(C(=O)OCCCCCN1CCOCC1)c1ccc(Br)cn21`
Return: 0.031 µg/mL

---

# Test system: Staphylococcus aureus
# test: Antibacterial activity against methicillin-resistant Staphylococcus aureus 614019 clinical isolate after 20 to 24 hrs by two-fold microdilution method
# Format: functional
Reported MIC values for a set of compounds
State the answer as a number, implicitly in µg/mL.

[
  {
    "cpd.smiles": "O=C1c2cccnc2C(=O)c2c1c(C(=O)OCCCCCCN1CCCCC1)c1ccc(Br)cn21",
    "assay.system": "Staphylococcus aureus",
    "unit": "µg/mL",
    "MIC": 0.063
  },
  {
    "cpd.smiles": "CN(C)CCCCCOC(=O)c1c2c(n3cc(Br)ccc13)C(=O)c1ncccc1C2=O",
    "assay.system": "Staphylococcus aureus",
    "unit": "µg/mL",
    "MIC": 0.125
  },
  {
    "cpd.smiles": "O=C1c2cccnc2C(=O)c2c1c(C(=O)OCCCCCN1CCOCC1)c1ccc(Br)cn21",
    "assay.system": "Staphylococcus aureus",
    "unit": "µg/mL",
    "MIC": 0.031
  }
]

Enquiry: Field request: MIC | item: `O=C1c2cccnc2C(=O)c2c1c(C(=O)OCCCCN1CCOCC1)c1ccc(Br)cn21`
Return: 0.5

Enquiry: Field request: MIC | item: `CN1CCN(CCCCCCOC(=O)c2c3c(n4cc(Br)ccc24)C(=O)c2ncccc2C3=O)CC1`
Return: 0.125

---

Reported MIC values for a set of molecules
# System: Staphylococcus aureus
# test: Antibacterial activity against methicillin-resistant Staphylococcus aureus 912014 clinical isolate after 20 to 24 hrs by two-fold microdilution method
# Format: functional

[
  {
    "cpd.smiles": "CN1CCN(CCCCCCOC(=O)c2c3c(n4cc(Br)ccc24)C(=O)c2ncccc2C3=O)CC1",
    "result": "0.031 µg/mL"
  }
]

Enquiry: Please provide the recorded MIC for `O=C1c2cccnc2C(=O)c2c1c(C(=O)OCCCCCCN1CCCCC1)c1ccc(Br)cn21` , tested on Staphylococcus aureus.
Return: 0.063 µg/mL

Enquiry: Please provide the recorded MIC for `O=C1c2cccnc2C(=O)c2c1c(C(=O)OCCCCN1CCOCC1)c1ccc(Br)cn21` , tested on Staphylococcus aureus.
Return: 0.5 µg/mL

Enquiry: Please provide the recorded MIC for `CN(C)CCCCCOC(=O)c1c2c(n3cc(Br)ccc13)C(=O)c1ncccc1C2=O` , tested on Staphylococcus aureus.
Return: 0.5 µg/mL

Enquiry: Please provide the recorded MIC for `O=C1c2cccnc2C(=O)c2c1c(C(=O)OCCCCCN1CCOCC1)c1ccc(Br)cn21` , tested on Staphylococcus aureus.
Return: 0.063 µg/mL

Enquiry: Please provide the recorded MIC for `O=C1c2cccnc2C(=O)c2c1c(C(=O)OCCCCCCN1CCOCC1)c1ccc(Br)cn21` , tested on Staphylococcus aureus.
Return: ≤ 0.0078 µg/mL
